The reader will find reported pEC50 values listed item by item below.
substrate: NP of A/Brisbane/59/2007(H1N1/H1B) (influenza A virus A/Brisbane/59/2007 (H1N1)); experiment: sandwich ELISA, capture IgG; NP of lysed virus titrated; HRP-NP16 detection
The scale used: pEC50 is minus the common logarithm of the concentration in molar units.

NP7 (antibody, V domains shown) VH: EVQLVESGGGLVQPGGSLRLSCAASGFTISNGGIHWVRQAPGKGLEWVAGIGPYGGFTSYADSVKGRFTISADTSKNTAYLQMNSLRAEDTAVYYCARFYSNYYGYHGVMDYWGQGTLVTVSS VL: DIQMTQSPSSLSASVGDRVTITCRASQDVFGWVAWYQQKPGKAPKLLISYSASLYSGVPSRFSGSGSGTDFTLTISSLQPEDFATYYCQQYFNYPLTFGQGTKVEIKR	8.38

Could you share which pEC50 value was measured for NP21 (antibody, V domains shown) VH: EVQLVESGGGLVQPGGSLRLSCAASGFTINGYGIHWVRQAPGKGLEWVAGIWPYGGSTFYADSVKGRFTISADTSKNTAYLQMNSLRAEDTAVYYCARFYNNHGGIMDYWGQGTLVTVSS VL: DIQMTQSPSSLSASVGDRVTITCRASQDVYFYVAWYQQKPGKAPKLLIYGSRWLYSGVPSRFSGSGSGTDFTLTISSLQPEDFATYYCQQYSNFPVTFGQGTKVEIKR ?
8.57

Would you kindly repeat that for NP3 (antibody, V domains shown) VH: EVQLVESGGGLVQPGGSLRLSCAASGFTISNYGIHWVRQAPGKGLEWVAGIWPFGGFTSYADSVKGRFTISADTSKNTAYLQMNSLRAEDTAVYYCARFHWNDHGYMDYWGQGTLVTVSS VL: DIQMTQSPSSLSASVGDRVTITCRASQDVGWYVAWYQQKPGKAPKLLIYSTTGLYSGVPSRFSGSGSGTDFTLTISSLQPEDFATYYCQQYYNYPITFGQGTKVEIKR ?
8.63

Would you kindly repeat that for NP22 (antibody, V domains shown) VH: EVQLVESGGGLVQPGGSLRLSCAASGFTISDWSIHWVRQAPGKGLEWVAGIWPYWGSTSYADSVKGRFTISADTSKNTAYLQMNSLRAEDTAVYYCARGFYSWFDYWGQGTLVTVSS VL: DIQMTQSPSSLSASVGDRVTITCRASQDVFSWVAWYQQKPGKAPKLLISSASSLYSGVPSRFSGSGSGTDFTLTISSLQPEDFATYYCQQSWDYPITFGQGTKVEIKR ?
7.23

Would you kindly repeat that for NP17 (antibody, V domains shown) VH: EVQLVESGGGLVQPGGSLRLSCAASGFTISGGSIHWVRQAPGKGLEWVASIWPFGGSTFYADSVKGRFTISADTSKNTAYLQMNSLRAEDTAVYYCARFGHGHNVIMDYWGQGTLVTVSS VL: DIQMTQSPSSLSASVGDRVTITCRASQDVGYSVAWYQQKPGKAPKLLISSPGGLYSGVPSRFSGSGSGTDFTLTISSLQPEDFATYYCQQYYDYPVTFGQGTKVEIKR ?
8.39
